Assignment: determine reported interaction score for the given binders.
Molecular target: T1, 4H3112-bH
T1 chain: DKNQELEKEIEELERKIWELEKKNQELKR
Assay: two-hybrid library CCNG1;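 also: natural log of median RNA to DNA barcode read ratio; higher means stronger binding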
Give bare numbers.

Recorded results for 10 binders are shown here.
Give its interaction score value. Item: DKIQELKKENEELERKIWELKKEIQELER [4H2729-bH] 0.258

And what about the binder DENQELEKENEELEREIWELEKKIQELKR [4H1158-bH] ? -0.598

And what about the binder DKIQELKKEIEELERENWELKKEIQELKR [4H2586-bH] ? -1.96

And what about the binder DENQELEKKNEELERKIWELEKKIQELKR [4H1446-bH] ? -0.67

And what about the binder DKIQELKKENEELEREIWELKKKIQELKR [4H2702-bH] ? 0.549

And what about the binder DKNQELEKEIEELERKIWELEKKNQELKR [4H3112-bH] ? 1.18

And what about the binder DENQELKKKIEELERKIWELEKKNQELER [4H1831-bH] ? -0.582

And what about the binder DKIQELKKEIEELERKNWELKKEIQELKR [4H2618-bH] ? -0.148

And what about the binder DKIQELKKKNEELKREIWELEKEIQELKR [4H3010-bH] ? -1.68

And what about the binder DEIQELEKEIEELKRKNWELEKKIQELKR [4H118-bH] ? 0.102

Would you be so kind as to report interaction score for each listed record?
1. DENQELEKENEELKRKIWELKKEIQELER [4H1257-bH]
2. DENAQLKQKIAELEQKIAELEWKNAQLEQ [4H1831-bA]
3. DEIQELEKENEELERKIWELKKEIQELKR [4H170-bH]
4. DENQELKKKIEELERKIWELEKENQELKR [4H1828-bH]

1. -0.383
2. -0.386
3. 0.343
4. 0.767

// provenance: paper PMC10397247
